Cited source for all entries: the supplement of paper PMC11502859

# System: HEK293T;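 also: lentiviral eGFP-IRES-mCherry reporter pool sorted by FACS 96 h post-transduction, gated on mCherry-high cells, Illumina read counts normalized per million, median across four biological replicates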
# method-summary: median enrichment of reporter reads in eGFP-reduced (low/intermediate) vs eGFP-high sorted cells (eGFP-extension fusion abundance) (ratio); higher = stronger loss of eGFP-fusion protein abundance (more destabilising extension)
Label satisfied when median enrichment is at or above 5; otherwise label not satisfied.

Below are worked cases with known answers.
[[record]]
substance = "GAFFLEEESENFQTTAADSALMGCWLIGVLSMGDWNFFFV [ZNHIT6]"
group_label = "satisfied"

[[record]]
substance = "YNYLLNQDKHAFLLPWFYL [NCKAP1]"
group_label = "satisfied"

[[record]]
substance = "KFFRMQPGGTWI [DCAF4L2]"
group_label = "not satisfied"

[[record]]
substance = "YSPTPTAAYLHFQFLRGTEASSQHAANLWSLILTPSPTPVVGLYYV [KIF5A]"
group_label = "satisfied"

[[record]]
substance = "HHHHHH [His06]"
group_label = "not satisfied"

[[record]]
substance = "CMNEWVCWVGEGPGEGSGTEGMPGSLLPTASTDQQGLGQGGHPGGRGRLPPCLPAGGPRRRAGRVHVCGCPGDPGCLPCLPRP [TMEM91]"
group_label = "not satisfied"


Textbook exercise: given the entry YKGAEEGWSGWAGGPTSSPQHLPPTQLGQRGQDVCLPLRDRCLCPHTATGV [SEMA3G] , state whether its median enrichment is greater than or equal to 5. not satisfied

Textbook exercise: given the entry CCTKDLLF [GNA13] , state whether its median enrichment is greater than or equal to 5. not satisfied

Textbook exercise: given the entry WGSGFVSAAAYPCPMCPPLPVLRASGMVQALRKVRVAVWEPLCLAPGYPGPGNLRAGERWGGRHAEVLLVTGLPSLTCTYLHP [SLC36A1] , state whether its median enrichment is greater than or equal to 5. not satisfied

Textbook exercise: given the entry ELLTAFPKALLQKRSMSVIITWLSNLFHSMEPWRRKTLSYFVTQPGIGLFGPTRFPSPEELPRPGDQC [GRM7] , state whether its median enrichment is greater than or equal to 5. satisfied

Textbook exercise: given the entry LPLARSLPSVHRSQFHRWRRCLR [PIPOX] , state whether its median enrichment is greater than or equal to 5. satisfied
